Source: ChEMBL document CHEMBL4270617

- System: Ehrlich
- assayInfo: Antitumor activity against mouse EAC cells allografted in Swiss mouse assessed as viable tumor cell count at 0.5 mg/mouse administered for 9 days (reference value: 77.41 10^6/ml)
- Assay type: functional
endpointName: Activity (×10⁶ /ml)
Write the number in ×10⁶ /ml without appending the unit.

[in] # returns recorded Activity (system: Ehrlich) for CCOC(=O)C1=C(N/C=N/c2ncc(-c3ccccc3)s2)Nc2[nH]nc(C)c2C1c1ccc(N(C)C)cc1 (stereo unspecified)
[out] 48.56

[in] # repeat for CCOC(=O)C1=C(N/C=N/c2cccnc2Cl)Nc2[nH]nc(C)c2C1c1ccc(N(C)C)cc1 (stereo unspecified)
[out] 21.8

[in] # repeat for CCOC(=O)C1=C(NN=C(C(C)=O)C(C)=O)Nc2[nH]nc(C)c2C1c1ccc(N(C)C)cc1 (stereo unspecified)
[out] 27.53

[in] # repeat for `COc1cccc2c1C(=O)c1c(O)c3c(c(O)c1C2=O)C[C@@](O)(C(=O)CO)C[C@@H]3O[C@H]1C[C@H](N)[C@H](O)[C@H](C)O1`
[out] 16.36

[in] # repeat for CCOC(=O)C1=C(N)Nc2[nH]nc(C)c2C1c1ccc(N(C)C)cc1 (stereo unspecified)
[out] 18.64

[in] # repeat for CCOC(=O)C1=C(NN=C(C#N)C#N)Nc2[nH]nc(C)c2C1c1ccc(N(C)C)cc1 (stereo unspecified)
[out] 30.93

---

- Tested on: Mus musculus
- assayInfo: Toxicity in Swiss albino mouse implanted with mouse EAC cells assessed as hemoglobin level at 0.5 mg/mouse administered for 9 days (reference value: 7.05 g/dl)
- Assay type: organism-based
- experimentalParameters: in vivo, 216 h
endpointName: Activity (g/dL)
Write the number in g/dL without appending the unit.

[in] # returns recorded Activity (system: Mus musculus) for `COc1cccc2c1C(=O)c1c(O)c3c(c(O)c1C2=O)C[C@@](O)(C(=O)CO)C[C@@H]3O[C@H]1C[C@H](N)[C@H](O)[C@H](C)O1`
[out] 12.75

[in] # repeat for CCOC(=O)C1=C(NN=C(C#N)C#N)Nc2[nH]nc(C)c2C1c1ccc(N(C)C)cc1 (stereo unspecified)
[out] 12.65

[in] # repeat for CCOC(=O)C1=C(N/C=N/c2cccnc2Cl)Nc2[nH]nc(C)c2C1c1ccc(N(C)C)cc1 (stereo unspecified)
[out] 13.85

[in] # repeat for CCOC(=O)C1=C(N/C=N/c2ncc(-c3ccccc3)s2)Nc2[nH]nc(C)c2C1c1ccc(N(C)C)cc1 (stereo unspecified)
[out] 11.9

[in] # repeat for CCOC(=O)C1=C(NN=C(C(C)=O)C(C)=O)Nc2[nH]nc(C)c2C1c1ccc(N(C)C)cc1 (stereo unspecified)
[out] 13.45

[in] # repeat for CCOC(=O)C1=C(N)Nc2[nH]nc(C)c2C1c1ccc(N(C)C)cc1 (stereo unspecified)
[out] 14.15

---

- Tested on: Mus musculus
- assayInfo: Toxicity in Swiss albino mouse implanted with mouse EAC cells assessed as WBC count at 0.5 mg/mouse administered for 9 days (reference value: 20.53 10^3/mm3)
- Assay type: organism-based
- experimentalParameters: in vivo, 216 h
Please provide measured Activity for the entries that follow.
Write the number in ×10³ /mm3 without appending the unit.

[in] Param item = CCOC(=O)C1=C(N/C=N/c2ncc(-c3ccccc3)s2)Nc2[nH]nc(C)c2C1c1ccc(N(C)C)cc1 (stereo unspecified) ; retrieve measured Activity.
[out] 11.83

[in] # repeat for CCOC(=O)C1=C(N/C=N/c2cccnc2Cl)Nc2[nH]nc(C)c2C1c1ccc(N(C)C)cc1 (stereo unspecified)
[out] 8.14

[in] # repeat for CCOC(=O)C1=C(NN=C(C(C)=O)C(C)=O)Nc2[nH]nc(C)c2C1c1ccc(N(C)C)cc1 (stereo unspecified)
[out] 8.84

[in] # repeat for `COc1cccc2c1C(=O)c1c(O)c3c(c(O)c1C2=O)C[C@@](O)(C(=O)CO)C[C@@H]3O[C@H]1C[C@H](N)[C@H](O)[C@H](C)O1`
[out] 8.96

[in] # repeat for CCOC(=O)C1=C(N)Nc2[nH]nc(C)c2C1c1ccc(N(C)C)cc1 (stereo unspecified)
[out] 6.38

[in] # repeat for CCOC(=O)C1=C(NN=C(C#N)C#N)Nc2[nH]nc(C)c2C1c1ccc(N(C)C)cc1 (stereo unspecified)
[out] 10.69
